Exercise: state measured IC50 for each of the compounds provided.
- tested_system: Recombinant human HSD17B13 enzyme (Homo sapiens, UniProt Q7Z5P4)
- assay_details: HSD17b13 NAD(P)H-Glo biochemical assay
- settings: 50 μM estradiol, 1 mM NAD+, 37° C. for 3 hours; read-out: HSD17β13 IC50
Structures can show the parent of a compound that is named as a salt.

Worked cases, IC50 given:
- Cn1nc(-c2cc(C(F)(F)F)c(F)c(O)c2F)c2cnc(N3CCN(S(C)(=O)=O)[C@@H](Cc4ccccc4)C3)nc21 [Compound 5.14]: ≤ 100 nM
- Cn1nc(-c2cc(C(F)(F)F)c(F)c(O)c2F)c2cnc(C3CCCN(Cc4ccccc4)C3)nc21 (stereo not shown) [Compound 14.01, hydrochloride]: 100 to 1000 nM
- CS(=O)(=O)N1CCN(c2cc3c(Cl)nn(-c4cc(C(F)(F)F)c(F)c(O)c4F)c3cn2)[C@H](Cc2ccccc2)C1 [Compound 2.20]: ≤ 100 nM

Provide IC50 for all items below, preserving their order.
1. Cn1nc(-c2cc(C(F)(F)F)c(F)c(O)c2F)c2cnc(N3CCCCC3Cc3ccccn3)nc21 (stereo not shown) [Compound 5.11]
2. Oc1c(F)cc2nnn(-c3ccc(N4CC[C@H](Cc5ccccc5)C4)cc3)c2c1F [Compound 1.07]
3. CC#Cc1cc(-c2nn(C)c3nc(N4CCN(S(C)(=O)=O)C[C@H]4Cc4ccccc4)ncc23)c(F)c(O)c1F [Compound 11.18]
4. Cc1nn(-c2cc(C(F)(F)F)c(F)c(O)c2F)c2ccc(N3CCN(S(C)(=O)=O)C[C@H]3Cc3ccccc3)cc12 [Compound 2.13]
5. Cc1nn(-c2cc(C(F)(F)F)c(F)c(O)c2F)c2cnc(N3CCOC[C@H]3Cc3ccccc3)nc12 [Compound 2.31]

Reply:
["≤ 100 nM", "≤ 100 nM", "≤ 100 nM", "≤ 100 nM", "≤ 100 nM"]

----------
Give measured IC50 for each item. Keep answers brief.
- tested_system: Recombinant human HSD17B13 enzyme (Homo sapiens, UniProt Q7Z5P4)
- Sequence (Q7Z5P4 20-300): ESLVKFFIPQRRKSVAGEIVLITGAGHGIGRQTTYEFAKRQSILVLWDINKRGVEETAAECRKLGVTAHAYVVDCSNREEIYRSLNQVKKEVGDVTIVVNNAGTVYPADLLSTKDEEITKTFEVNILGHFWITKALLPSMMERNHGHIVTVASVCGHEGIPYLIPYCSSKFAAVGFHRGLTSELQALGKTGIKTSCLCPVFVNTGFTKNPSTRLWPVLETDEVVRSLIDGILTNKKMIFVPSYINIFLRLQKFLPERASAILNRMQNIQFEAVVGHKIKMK
- assay_details: HSD17b13 NAD(P)H-Glo biochemical assay
- settings: 50 μM estradiol, 1 mM NAD+, 37° C. for 3 hours; read-out: HSD17β13 IC50

- Cc1nn(-c2cc(C(F)(F)F)c(F)c(O)c2F)c2cnc(N3CCN(S(C)(=O)=O)C[C@@H]3Cc3ccccc3)cc12 [Compound 2.03]: 100 to 1000 nM
- Cc1c(C(F)(F)F)cc(-c2nn(C)c3nc(N4CCN(S(C)(=O)=O)C[C@H]4Cc4ccccc4)ncc23)c(F)c1O [Compound 11.19]: ≤ 100 nM
- Cc1nn(-c2cc(C(F)(F)F)c(F)c(O)c2F)c2cnc(N3CCN(S(C)(=O)=O)[C@H](Cc4ccccc4)C3)cc12 [Compound 2.07]: ≤ 100 nM

Please supply IC50 for each of the following items, keeping them in order.
1. CS(=O)(=O)N1CCN(c2cc3c(N)nn(-c4cc(C(F)(F)F)c(F)c(O)c4F)c3cn2)[C@H](Cc2ccccc2)C1 [Compound 2.23]
2. Cn1nc(-c2cc(C(F)(F)F)c(F)c(O)c2F)c2cnc(N3CCOC[C@H]3CC3CCCCC3)nc21 (single isomer, unassigned) [Compound 15.04]

Reply:
1. ≤ 100 nM
2. ≤ 100 nM

Source: patent US20240368127A1
